The compounds below have reported pIC50 for UniProt P45452.
Recall that pIC50 is obtained by taking minus log10 of the concentration measured in molar.

Per the records, this compound ( COC(=O)C(C(=O)/C=C/c1ccc(O)cc1)C(=O)/C=C/c1ccc(O)cc1 ) has pIC50 equal to 4.57

According to the records, this compound c1cnc2c(c1)ccc1cccnc12 [1,10-Phen, 1,10-phenanthroline, reference compound] displays pIC50 of 4.30

Noted for O=C(/C=C/c1ccc(O)cc1)C(C(=O)/C=C/c1ccc(O)cc1)C(=O)Nc1ccccc1 : its pIC50 reads 5.57

###

- test.system: MMP-9 (Homo sapiens, UniProt P14780)
- Sequence (P14780 94-707): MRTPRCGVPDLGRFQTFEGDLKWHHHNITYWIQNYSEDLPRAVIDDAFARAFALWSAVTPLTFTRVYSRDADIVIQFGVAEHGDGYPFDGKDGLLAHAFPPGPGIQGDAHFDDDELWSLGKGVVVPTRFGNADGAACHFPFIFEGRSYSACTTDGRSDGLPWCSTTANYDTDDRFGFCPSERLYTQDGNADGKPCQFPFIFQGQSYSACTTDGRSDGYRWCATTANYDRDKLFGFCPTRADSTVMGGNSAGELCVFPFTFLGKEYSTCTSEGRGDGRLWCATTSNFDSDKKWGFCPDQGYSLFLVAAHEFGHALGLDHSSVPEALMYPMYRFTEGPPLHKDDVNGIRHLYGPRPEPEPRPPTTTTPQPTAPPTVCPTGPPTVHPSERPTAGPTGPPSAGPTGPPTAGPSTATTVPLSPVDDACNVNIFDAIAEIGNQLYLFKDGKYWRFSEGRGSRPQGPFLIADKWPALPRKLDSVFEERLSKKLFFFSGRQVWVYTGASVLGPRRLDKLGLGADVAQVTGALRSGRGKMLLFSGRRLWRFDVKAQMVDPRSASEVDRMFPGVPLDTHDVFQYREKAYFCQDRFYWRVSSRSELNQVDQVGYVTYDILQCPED
Answer each item with its documented IC50.
The answer is to be given in µM; state only the numeric part.

According to the records, this compound COC(=O)C(C(=O)/C=C/c1ccc(O)c(OC)c1)C(=O)/C=C/c1ccc(O)c(OC)c1 displays IC50 of 55

What the record says about O=C(/C=C/c1ccc(O)cc1)C(C(=O)/C=C/c1ccc(O)cc1)C(=O)Nc1ccccc1 : IC50 is 8

Record COc1cc(/C=C/C(=O)C(C(=O)/C=C/c2ccc(O)c(OC)c2)C(=O)Nc2ccccc2)ccc1O , field IC50: 8.7

Entry COc1cc(/C=C/C(=O)CC(=O)/C=C/c2ccc(O)c(OC)c2)ccc1O [Compound 1, reference compound] — recorded IC50 = 30

Noted for c1cnc2c(c1)ccc1cccnc12 [1,10-Phen, 1,10-phenanthroline, reference compound] : its IC50 reads 45

###

- test.system: MMP-12 (Homo sapiens, UniProt P39900)
- Sequence (P39900 106-470): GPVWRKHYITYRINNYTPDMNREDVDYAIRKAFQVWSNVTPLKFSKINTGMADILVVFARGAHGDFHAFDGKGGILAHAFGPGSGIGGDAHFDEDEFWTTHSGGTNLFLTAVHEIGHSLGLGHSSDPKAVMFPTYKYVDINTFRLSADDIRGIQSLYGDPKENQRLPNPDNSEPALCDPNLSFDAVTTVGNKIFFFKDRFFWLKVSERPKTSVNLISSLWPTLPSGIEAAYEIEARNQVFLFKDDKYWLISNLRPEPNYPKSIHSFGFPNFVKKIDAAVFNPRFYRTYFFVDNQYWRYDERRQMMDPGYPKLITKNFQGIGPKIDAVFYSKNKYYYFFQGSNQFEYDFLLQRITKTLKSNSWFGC
- protocol.description: fluorimetric assay of MMP activity
- Type: biochemical
- cond: synthetic fluorescent peptide substrate Mca-Lys-Pro-Leu-Gly-Leu-Dpa-Ala-Arg-NH2
Could you please mark TRUE for values of IC50 below 4 µM and FALSE for values at or above it?

query: Below 4 µM on IC50? Entry O=C(/C=C/c1ccc(O)cc1)C(C(=O)/C=C/c1ccc(O)cc1)C(=O)Nc1ccccc1
result: TRUE

query: IC50 under 4 µM? Item: COc1cc(/C=C/C(=O)C(C(=O)/C=C/c2ccc(O)c(OC)c2)C(=O)Nc2ccccc2)ccc1O
result: FALSE

query: Below 4 µM on IC50? Entry c1cnc2c(c1)ccc1cccnc12 [1,10-Phen, 1,10-phenanthroline, reference compound]
result: FALSE

query: Is IC50 of COC(=O)C(C(=O)/C=C/c1ccc(O)cc1)C(=O)/C=C/c1ccc(O)cc1 strictly below 4 µM?
result: FALSE

query: I'd appreciate it if you could check whether COc1cc(/C=C/C(=O)CC(=O)/C=C/c2ccc(O)c(OC)c2)ccc1O [Compound 1, reference compound] has IC50 smaller than 4 µM.
result: TRUE

###

Would you mind telling me the reported IC50 of each entry?
- test.system: MMP-2 (Homo sapiens, UniProt P08253)
- Sequence (P08253 110-660): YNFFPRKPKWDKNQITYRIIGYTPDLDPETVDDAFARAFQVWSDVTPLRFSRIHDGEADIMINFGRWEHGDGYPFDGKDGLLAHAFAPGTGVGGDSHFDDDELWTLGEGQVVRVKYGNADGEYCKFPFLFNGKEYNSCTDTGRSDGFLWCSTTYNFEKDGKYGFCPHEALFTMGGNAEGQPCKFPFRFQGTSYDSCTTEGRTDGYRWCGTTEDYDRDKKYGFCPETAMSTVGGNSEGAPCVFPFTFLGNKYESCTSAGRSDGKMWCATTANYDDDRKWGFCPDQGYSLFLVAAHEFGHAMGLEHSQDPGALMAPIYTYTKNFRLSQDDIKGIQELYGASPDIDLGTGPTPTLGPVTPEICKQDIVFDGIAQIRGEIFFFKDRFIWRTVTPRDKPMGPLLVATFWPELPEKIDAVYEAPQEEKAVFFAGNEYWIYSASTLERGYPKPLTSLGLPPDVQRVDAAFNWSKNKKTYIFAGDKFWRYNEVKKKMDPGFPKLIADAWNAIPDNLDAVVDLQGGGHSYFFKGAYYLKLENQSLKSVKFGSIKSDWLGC
- protocol.description: fluorimetric assay of MMP activity
- Type: biochemical
- cond: synthetic fluorescent peptide substrate Mca-Lys-Pro-Leu-Gly-Leu-Dpa-Ala-Arg-NH2; read-out: IC50 MMP-2
Just so you know, I need the unit written after the number.

# value of IC50, MMP-2 (Homo sapiens, UniProt P08253), item c1cnc2c(c1)ccc1cccnc12 [1,10-Phen, 1,10-phenanthroline, reference compound] = 73.8 µM

The measured IC50 that COC(=O)C(C(=O)/C=C/c1ccc(O)cc1)C(=O)/C=C/c1ccc(O)cc1 showed for MMP-2 (Homo sapiens, UniProt P08253) is 23.8 µM

// returns IC50 for COC(=O)C(C(=O)/C=C/c1ccc(O)c(OC)c1)C(=O)/C=C/c1ccc(O)c(OC)c1 with MMP-2 (Homo sapiens, UniProt P08253); value = 25.3 µM

The reported IC50 value, MMP-2 (Homo sapiens, UniProt P08253), for O=C(/C=C/c1ccc(O)cc1)C(C(=O)/C=C/c1ccc(O)cc1)C(=O)Nc1ccccc1 reads 4.8 µM

Log: MMP-2 (Homo sapiens, UniProt P08253), compound COc1cc(/C=C/C(=O)C(C(=O)/C=C/c2ccc(O)c(OC)c2)C(=O)Nc2ccccc2)ccc1O , IC50 = 6.3 µM
